# subject of test: IL-13 (Homo sapiens (Human), UniProt P35225 35-146, limits assumed)
# Sequence (P35225 35-146 limits assumed): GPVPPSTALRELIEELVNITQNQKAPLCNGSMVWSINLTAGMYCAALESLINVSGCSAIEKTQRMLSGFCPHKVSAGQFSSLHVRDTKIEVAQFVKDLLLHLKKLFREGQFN
# procedure summary: Biacore
measurement type: kon (M⁻¹ s⁻¹)
Give the value, in units of M⁻¹ s⁻¹, as a plain number.

Some binders with recorded kon:
binder | units label | kon
M442 (antibody, V domains shown) VH: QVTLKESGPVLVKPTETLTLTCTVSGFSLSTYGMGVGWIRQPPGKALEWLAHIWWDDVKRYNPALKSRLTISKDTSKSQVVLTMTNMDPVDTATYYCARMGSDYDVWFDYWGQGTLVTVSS VL: EIVLTQSPATLSLSPGERATLSCRASKSISKYLAWYQQKPGQAPRLLIYSGSTLQSGIPARFSGSGSGTDFTLTISSLEPEDFAVYYCQQQDGPYTFGQGTKLEIK | M⁻¹ s⁻¹ | 1.32e+06
M456 (antibody, V domains shown, anti-IL-13, human IgG1) VH: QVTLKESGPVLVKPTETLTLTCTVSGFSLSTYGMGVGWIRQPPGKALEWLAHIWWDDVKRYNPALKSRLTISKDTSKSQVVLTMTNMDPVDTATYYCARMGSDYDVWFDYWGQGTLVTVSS VL: EIVLTQSPATLSLSPGERATLSCRASKSISKYLAWYQQKPGQAPRLLIYSGSTLQSGIPARFSGSGSGTDFTLTISSLEPEDFAVYYCQQHSYGPYTFGQGTKLEIK | M⁻¹ s⁻¹ | 1.24e+06

Moving on to another binder below.
IN: Entry M446 (antibody, V domains shown, anti-IL-13, human IgG1) VH: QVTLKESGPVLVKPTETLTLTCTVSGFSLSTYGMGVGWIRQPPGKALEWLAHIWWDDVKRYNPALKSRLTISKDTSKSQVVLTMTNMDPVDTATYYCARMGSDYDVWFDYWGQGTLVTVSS VL: EIVLTQSPATLSLSPGERATLSCRASKSISKYLAWYQQKPGQAPRLLIYSGSTLQSGIPARFSGSGSGTDFTLTISSLEPEDFAVYYCQQHVGGPYTFGQGTKLEIK : reported kon = ?
OUT: 1.35e+06
